# system_under_test: EGFR L858R/T790M (Homo sapiens, UniProt P00533, L858R/T790M)
# Construct: purchased Carna Bio
# Sequence (P00533 25-1210 T790M/L858R): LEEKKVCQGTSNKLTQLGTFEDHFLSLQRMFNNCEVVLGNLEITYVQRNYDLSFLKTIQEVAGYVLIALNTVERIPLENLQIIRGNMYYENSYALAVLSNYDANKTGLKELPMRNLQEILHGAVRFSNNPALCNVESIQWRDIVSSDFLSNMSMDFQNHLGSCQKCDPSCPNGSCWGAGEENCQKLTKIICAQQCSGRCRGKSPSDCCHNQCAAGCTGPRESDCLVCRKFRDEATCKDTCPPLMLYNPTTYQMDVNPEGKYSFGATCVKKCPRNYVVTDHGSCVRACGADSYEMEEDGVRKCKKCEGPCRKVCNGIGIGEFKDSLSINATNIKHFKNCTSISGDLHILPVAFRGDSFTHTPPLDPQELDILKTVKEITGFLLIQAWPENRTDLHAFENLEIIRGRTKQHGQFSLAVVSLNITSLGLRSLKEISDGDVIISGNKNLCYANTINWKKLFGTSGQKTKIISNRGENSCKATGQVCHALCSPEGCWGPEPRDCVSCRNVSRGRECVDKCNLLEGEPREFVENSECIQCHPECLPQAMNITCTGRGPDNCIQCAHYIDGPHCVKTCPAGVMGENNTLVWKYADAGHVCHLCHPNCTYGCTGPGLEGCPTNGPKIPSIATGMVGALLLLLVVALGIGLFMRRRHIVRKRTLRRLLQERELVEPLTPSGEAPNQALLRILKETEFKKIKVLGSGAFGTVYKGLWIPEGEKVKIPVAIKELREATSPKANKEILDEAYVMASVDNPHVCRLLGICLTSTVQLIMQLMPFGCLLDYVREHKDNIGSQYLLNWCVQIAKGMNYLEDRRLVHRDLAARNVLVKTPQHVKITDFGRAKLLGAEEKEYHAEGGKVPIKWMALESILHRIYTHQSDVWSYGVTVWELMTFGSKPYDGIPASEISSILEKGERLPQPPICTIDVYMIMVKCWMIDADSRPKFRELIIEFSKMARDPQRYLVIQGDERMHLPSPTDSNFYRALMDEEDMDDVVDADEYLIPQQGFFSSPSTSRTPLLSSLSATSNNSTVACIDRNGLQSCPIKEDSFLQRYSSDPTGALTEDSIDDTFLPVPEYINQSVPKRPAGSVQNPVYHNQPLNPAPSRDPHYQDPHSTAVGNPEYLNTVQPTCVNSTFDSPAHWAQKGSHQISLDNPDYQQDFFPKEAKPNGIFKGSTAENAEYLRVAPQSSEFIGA
# procedure_text: Inhibition of EGFR L858R/T790M biochemical enzymatic activity (HTRF)
# reported_conditions: EGFR L858R/T790M, 1 mM ATP, 1 h at room temperature, read-out: IC50 @L858R-T790M
pIC50: −log10 of the molar value.
Attribute: pIC50

In: Tell me reported pIC50 for Cc1cc2cc(n1)-c1cnn(C)c1OCCN1CC3CCC(C3)(C1)n1c(nc3ccc(N4CCC5(CC4)CCN5C)cc31)NC2=O (single isomer, unassigned) [Example B54A] , tested with EGFR L858R/T790M (Homo sapiens, UniProt P00533, L858R/T790M).
Out: < 5.30

In: What pIC50 appears in the records for this molecule with EGFR L858R/T790M (Homo sapiens, UniProt P00533, L858R/T790M)? Cc1cc2cc(n1)-c1cnn(C)c1OCCN1CC3CCC(C3)(C1)n1c(nc3ccc(N4CCN(C)CC4)cc31)NC2=O (single isomer, unassigned) [Example B9A]
Out: < 5.30

In: Request body: readout pIC50, system EGFR L858R/T790M (Homo sapiens, UniProt P00533, L858R/T790M), query Cc1cc2cc(n1)-c1cnn(C)c1OCCN1CC3CCC(C3)(C1)n1c(nc3ccc(N4CCC5(CN(C)C5)C4)cc31)NC2=O (single isomer, unassigned) [Example B50A] . Return the value.
Out: < 5.30

In: Notebook entry, EGFR L858R/T790M (Homo sapiens, UniProt P00533, L858R/T790M) assay: pIC50 of Cc1cc2cc(n1)-c1cnn(C)c1OCCN1CC3CCC(C3)(C1)n1c(nc3ccc(N4CCC5(CCN(C)C5)CC4)cc31)NC2=O (single isomer, unassigned) [Example B52A] = ?
Out: < 5.30

We now examine a further molecule.
In: Find pIC50 (EGFR L858R/T790M (Homo sapiens, UniProt P00533, L858R/T790M)) for the entry Cc1cc2cc(n1)-c1cnn(C)c1OCCN1CC3CCC(C3)(C1)n1c(nc3ccc(N4CCC(N5CCOCC5)C4)cc31)NC2=O (single isomer, unassigned) [Example B44B2]
Out: 7.85

----------
# System: Ba/F3 cells expressing EGFR mutations
# procedure_text: Cell proliferation assay, Ba/F3 cells expressing EGFR mutations (CellTiter-Glo, 72 hours)
# Format: cell-based
# reported_conditions: Mus musculus, BaF3, 72 h, BaF3 cells, EGFR L858R-T790M, CellTiter-Glo, read-out: L858R-T790M/BaF3 GI50
readout_label: GI50 (µM)

1. CN(C)CCN(C)c1ccc2nc3n(c2c1)CCN(CC(F)F)CCOc1c(cnn1C)-c1cc(cn(C)c1=O)C(=O)N3
2. C[C@@H]1CCCOc2c(cnn2C)-c2cc(cn(C)c2=O)C(=O)Nc2nc3ccc(N4CC5(CCN(C)CC5)C4)cc3n2C1
3. C[C@@H]1CCCOc2c(cnn2C)-c2cc(cn(C)c2=O)C(=O)Nc2nc3ccc(N4CC5CN(C)CC5C4)cc3n2C1 (stereo partly shown)
In: Using measured GI50, arrange the compounds from above in descending sequence. Present the labels in the sequence the task asks for.
Out: 1, 3, 2
(1: 0.585 µM, 3: 0.024 µM, 2: 0.0029 µM)

----------
# system_under_test: EGFR Exon19Del/T790M (Homo sapiens, UniProt P00533, DEL746-750/T790M)
# Construct: purchased Carna Bio
# Sequence (P00533 with tags, fused parts or gaps DEL746-750/T790M limits assumed): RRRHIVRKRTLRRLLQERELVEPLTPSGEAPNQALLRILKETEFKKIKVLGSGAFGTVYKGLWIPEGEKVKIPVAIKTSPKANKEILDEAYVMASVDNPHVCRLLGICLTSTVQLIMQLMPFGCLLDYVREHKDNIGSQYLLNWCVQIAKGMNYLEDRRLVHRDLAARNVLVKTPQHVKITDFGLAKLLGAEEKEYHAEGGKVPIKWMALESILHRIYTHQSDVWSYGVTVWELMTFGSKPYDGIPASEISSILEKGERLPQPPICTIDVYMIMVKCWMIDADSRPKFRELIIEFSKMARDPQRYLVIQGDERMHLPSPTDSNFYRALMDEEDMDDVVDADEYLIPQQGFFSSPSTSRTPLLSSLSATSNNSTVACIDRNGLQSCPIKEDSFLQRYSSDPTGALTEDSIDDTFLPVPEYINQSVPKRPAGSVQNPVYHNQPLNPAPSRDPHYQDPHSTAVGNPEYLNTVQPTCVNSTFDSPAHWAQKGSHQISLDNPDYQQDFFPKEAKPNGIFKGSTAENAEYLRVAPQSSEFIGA
# procedure_text: Inhibition of EGFR Exon19Del/T790M biochemical enzymatic activity (HTRF)
# reported_conditions: EGFR Del19-T790M, 1 mM ATP, 1 h, room temperature, read-out: IC50 (nM) @Del19-T790M
readout_label: IC50 (nM)

A selection of reference data follows.
In: Which IC50 reading was recorded for the compound CCn1ncc2c1OCCC[C@@H](C)Cn1c(nc3ccc(N4CCN(C)CC4)cc31)NC(=O)c1cc-2c(=O)n(C)c1 ?
Out: 7.3

In: Give the measured IC50 of Cn1ncc2c1OCCN1CC3CCC(C3)(C1)n1c(nc3ccc(N4CCC(N5CC(F)C5)C4)cc31)NC(=O)c1cc-2c(=O)n(C)c1 (single isomer, unassigned) [Example A94B1] .
Out: 7.1

In: Consider the compound CN1CCC2(CC1)CCN(c1ccc3nc4n(c3c1)C13CCC(CC1)CN(CCOc1c(cnn1C)-c1cc(cn(C)c1=O)C(=O)N4)C3)C2 and give its measured IC50.
Out: 13

A. C[C@@H]1CCCOc2c(cnn2C)-c2cc(cn(C)c2=O)C(=O)Nc2nc3ccc(N4CC(N(C)C)C4)cc3n2C1
B. CN(C)C1CN(c2ccc3nc4n(c3c2)C23CCC(CN(CCOc5c(cnn5C)-c5cc(cn(C)c5=O)C(=O)N4)C2)C3)CC1(F)F (single isomer, unassigned) [Example A99B]
In: Of A and B , whose reported IC50 is the larger number? Please reply using the label of the selected record.
Out: B

----------
# system_under_test: EGFR Exon19Del (Homo sapiens, UniProt P00533, DEL746-750)
# Construct: purchased Carna Bio
# Sequence (P00533 with tags, fused parts or gaps DEL746-750 limits assumed): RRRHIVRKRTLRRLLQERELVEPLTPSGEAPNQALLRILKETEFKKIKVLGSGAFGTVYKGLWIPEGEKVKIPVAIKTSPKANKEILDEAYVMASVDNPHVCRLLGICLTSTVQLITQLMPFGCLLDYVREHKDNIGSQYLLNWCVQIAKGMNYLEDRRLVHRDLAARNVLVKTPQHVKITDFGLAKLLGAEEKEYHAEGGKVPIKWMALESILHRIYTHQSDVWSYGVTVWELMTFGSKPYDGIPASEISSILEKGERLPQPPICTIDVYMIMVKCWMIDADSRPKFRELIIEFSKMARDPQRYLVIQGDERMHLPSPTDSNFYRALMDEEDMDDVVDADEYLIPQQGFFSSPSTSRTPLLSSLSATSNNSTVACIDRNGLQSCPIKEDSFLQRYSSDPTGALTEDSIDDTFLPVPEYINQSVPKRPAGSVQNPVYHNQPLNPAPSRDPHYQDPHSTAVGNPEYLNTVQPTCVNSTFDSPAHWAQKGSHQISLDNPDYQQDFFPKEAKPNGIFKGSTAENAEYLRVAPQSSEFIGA
# procedure_text: Inhibition of EGFR Exon19Del biochemical enzymatic activity (HTRF)
# reported_conditions: EGFR Del19, 1 mM ATP, 1 h, room temperature, read-out: IC50 @Del19
pIC50: −log10 of the molar value.
readout_label: pIC50

Previously resolved entries follow.
In: Recall the recorded pIC50 for CCC1CCCOc2c(cnn2C)-c2cc(cn(C)c2=O)C(=O)Nc2nc3ccc(N4CCN(C)CC4)cc3n2C1 (single isomer, unassigned) [Example A16A] with EGFR Exon19Del (Homo sapiens, UniProt P00533, DEL746-750) and state it.
Out: 6.82

In: Fill in the recorded pIC50 for this compound, with EGFR Exon19Del (Homo sapiens, UniProt P00533, DEL746-750) as test system: CN1CCN(c2ccc3c(c2)nc2n3C34CCC(CN(CCOc5c(cnn5C)-c5cc(cn(C)c5=O)C(=O)N2)C3)C4)CC1 (stereo not shown) [Example A60B]
Out: 8.49

A. Cc1cc2cc(n1)-c1cnn(C)c1OCCN(CC(F)F)CCn1c(nc3ccccc31)NC2=O
B. C[C@@H]1CCCOc2c(cnn2C)-c2cc(cn(C)c2=O)C(=O)Nc2nc3ccc(N4CC(N5CCN(C)CC5)C4)cc3n2C1
In: Could you please tell me which of these two has the higher pIC50: A or B ? Your choice should be expressed through its label.
Out: B

----------
# system_under_test: EGFR Exon19Del/T790M (Homo sapiens, UniProt P00533, DEL746-750/T790M)
# Construct: purchased Carna Bio
# procedure_text: Inhibition of EGFR Exon19Del/T790M biochemical enzymatic activity (HTRF)
# reported_conditions: EGFR Del19-T790M, 1 mM ATP, 1 h, room temperature, read-out: IC50 (nM) @Del19-T790M
# Procedure: Biological Example 1: Inhibition of EGFR WT and Mutant Biochemical Enzymatic Activity The inhibition potency of compounds against these enzymes was assessed using Homogenous Time Resolved Fluorescence approach (HTRF, CisBio. Cat No. 62TKOPEJ). Inhibitory effects of the compounds were determined by measuring the enzymatic activity of EGFR enzyme phosphorylates 1 μM TK Substrate-biotin in the presence of 1 mM adenosine-5′-triphosphate (ATP) and varying concentrations of the test compound. […]
readout_label: IC50 (nM)

In: Fill in the recorded IC50 for this compound, with EGFR Exon19Del/T790M (Homo sapiens, UniProt P00533, DEL746-750/T790M) as test system: CN(C)[C@H]1CCN(c2ccc3nc4n(c3c2)C23CCC(CC2)CN(CCOc2c(cnn2C)-c2cc(cn(C)c2=O)C(=O)N4)C3)C1 [Example A120]
Out: 16

1. CN1CCC2CN(c3ccc4nc5n(c4c3)C34CCC(CN(CCOc6c(cnn6C)-c6cc(cn(C)c6=O)C(=O)N5)C3)C4)CC21 (single isomer, unassigned) [Example A79B]
2. CN(C)C1CN(c2ccc3nc4n(c3c2)C23CCC(CN(CCOc5c(cnn5C)-c5cc(cn(C)c5=O)C(=O)N4)C2)C3)CC1F (single isomer, unassigned) [Example A84D]
In: Which item exceeds the other in IC50, 1 or 2 ? Answer = label.
Out: 1
(1: 10 nM, 2: 3.9 nM)

----------
Catalogue of compounds with associated IC50
# system_under_test: EGFR wild type (Homo sapiens, UniProt P00533)
# Construct: purchased Carna Bio
# Sequence (P00533 25-1210): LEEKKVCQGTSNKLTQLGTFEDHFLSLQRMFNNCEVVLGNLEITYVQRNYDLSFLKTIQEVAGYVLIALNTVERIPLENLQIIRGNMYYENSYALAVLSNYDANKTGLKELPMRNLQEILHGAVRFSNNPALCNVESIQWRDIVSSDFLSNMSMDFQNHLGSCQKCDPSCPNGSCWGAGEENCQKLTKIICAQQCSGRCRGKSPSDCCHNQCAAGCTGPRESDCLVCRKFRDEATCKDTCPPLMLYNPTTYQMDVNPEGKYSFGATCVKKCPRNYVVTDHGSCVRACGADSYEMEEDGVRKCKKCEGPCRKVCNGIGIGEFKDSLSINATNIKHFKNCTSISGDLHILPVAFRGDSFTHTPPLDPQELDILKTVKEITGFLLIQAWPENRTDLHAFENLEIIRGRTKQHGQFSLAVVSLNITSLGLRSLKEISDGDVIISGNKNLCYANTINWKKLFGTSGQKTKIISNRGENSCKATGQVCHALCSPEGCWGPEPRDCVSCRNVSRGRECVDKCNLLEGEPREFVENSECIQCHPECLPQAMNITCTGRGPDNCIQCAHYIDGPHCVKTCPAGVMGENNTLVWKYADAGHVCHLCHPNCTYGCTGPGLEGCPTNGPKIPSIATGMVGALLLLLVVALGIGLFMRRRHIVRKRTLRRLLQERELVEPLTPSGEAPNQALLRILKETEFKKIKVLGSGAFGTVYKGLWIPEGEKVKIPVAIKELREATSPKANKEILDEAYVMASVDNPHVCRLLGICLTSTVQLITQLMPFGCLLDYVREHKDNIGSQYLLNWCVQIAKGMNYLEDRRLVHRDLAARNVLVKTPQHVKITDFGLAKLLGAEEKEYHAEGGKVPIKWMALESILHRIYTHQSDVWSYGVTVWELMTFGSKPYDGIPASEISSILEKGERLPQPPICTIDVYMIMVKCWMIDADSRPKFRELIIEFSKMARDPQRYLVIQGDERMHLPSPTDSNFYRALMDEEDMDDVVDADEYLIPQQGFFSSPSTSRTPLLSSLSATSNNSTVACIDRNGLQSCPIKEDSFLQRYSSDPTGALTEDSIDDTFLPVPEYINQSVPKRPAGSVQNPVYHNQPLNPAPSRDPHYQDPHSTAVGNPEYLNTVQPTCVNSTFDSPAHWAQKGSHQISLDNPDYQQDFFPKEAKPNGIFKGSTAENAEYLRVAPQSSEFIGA
# procedure_text: Inhibition of EGFR wild type biochemical enzymatic activity (HTRF)
# reported_conditions: EGFR wild type, 1 mM ATP, 1 h at room temperature, read-out: IC50 @WT

These solved cases illustrate the format of a correct answer.
In: IC50 lookup needed for Cc1cc2cc(n1)-c1cnn(C)c1OCCN1CC3CCC(CC3)(C1)n1c(nc3ccc(N4CCC5(CN(C)C5)C4)cc31)NC2=O [Example B37] , thanks.
Out: > 5 µM

In: Fill in the blank: the reported IC50 of Cc1cc2cc(n1)-c1cnn(C)c1OCCN1CC3CCC(C3)(C1)n1c(nc3ccc(N4CC[C@@H](N(C)C)C4)cc31)NC2=O (single isomer, unassigned) [Example B42A] is ____.
Out: > 5 µM

In: Could you share which IC50 value was measured for Cc1cc2cc(n1)-c1cnn(C)c1OCCCCCn1c(nc3ccc4c(c31)CCNC4)NC2=O [Example B16] ?
Out: > 5 µM

In: Which IC50 reading was recorded for the compound Cc1cc2cc(n1)-c1cnn(C)c1OCCN1CC3CCC(C3)(C1)n1c(nc3ccc(N4CCN(C5CC5)CC4)cc31)NC2=O (single isomer, unassigned) [Example B55A] ?
Out: > 5 µM

In: For the compound Cc1cc2cc(n1)-c1cnn(C)c1OCCN1CC3CCC(C3)(C1)n1c(nc3ccc(N4CCN(C)CC4)cc31)NC2=O (stereo not drawn) [Example B9B] , what IC50 is on record?
Out: 0.114 µM

Now examine the next entry.
In: # get_value(readout='IC50', item= Cc1cc2cc(n1)-c1cnn(C)c1OCCN1CC3CCC(CC3)(C1)n1c(nc3ccc(N(C)CCCN(C)C)cc31)NC2=O [Example B33] )
Out: > 5 µM
